biological target: Cytochrome P450 2C19 (Homo sapiens); test: Cytochrome panel assay with activity outcomes; settings: recombinant CYP, pro-luciferin dealkylation, luminescence, p450-cyp2c19; series mostly up to 57.1 µM
Hit rate of the full screen: of about 16,000 compounds, about 5,800 (36%) were called active. Inconclusive results (about 23%) are left out. Calls follow the shape of the dose curve; as a rule, active = well fitted curve in the direction sought with a large enough effect; inconclusive = small, poorly fitted or top-dose-only effect, or effect the other way; inactive = no such curve, though single readings can be large or run the other way. The list shows a part of the results.
Classes used: yes (1) for active, no (0) for inactive

1. CCN1C(=O)c2cccc3c(NC(=O)c4cccc(N5C(=O)CCC5=O)c4)ccc1c23; no (0)
2. OC(Cc1nc2ccccc2[nH]1)c1ccccc1Cl (stereo not drawn); yes (1)
3. COC(=O)COc1ccc(/C=C2/SC(=O)N(CC(=O)N3CCCC3)C2=O)cc1Br; no (0)
